Taken from ChEMBL document CHEMBL4477214.

- tgt: Polymerase acidic protein (Influenza A virus (A/Puerto Rico/8/1934(H1N1)), UniProt P03433)
Rule: IC50 below 5 µM gives True, anything at or above gives False.

compound_structure=CN(Cc1cc(=O)c(O)co1)c1ccc(F)cc1 class_label=True

is_below(IC50, 5 µM) for Cc1occ(O)c(=O)c1C(=O)NCCc1ccccc1 ?
False

Follow-up entry: Cc1cc(=O)c(O)cn1-c1ccc(-c2ccccc2)cc1
True

Follow-up entry: Cc1c(O)c(=O)ccn1C1CCCCC1
False

Follow-up entry: CCOC(=O)c1c(C)n(-c2ccccc2)cc(O)c1=O
False

Follow-up entry: O=c1cc(CNCc2ccccc2)occ1O
True
